Measured pull-down binding Z-score, listed per entry for reference.
System: TO-N3 (biotin conjugate)
Experiment: pull-down binding Z-score (relative to library population); higher = stronger binding
Conditions: RNA library: Library-2
PROPERTY_LABEL: pull-down binding Z-score

sequence_text="ACAGCGCCACGGAAGAGGACGCA [hsa-mir-941-4_941-5_941-2_941-3_941-1]" reported=0.495
sequence_text="GCCCUGGGCCGGGCGAUGUCCGCUUGGGGG [hsa-mir-6090]" reported=1.11
sequence_text="CUGUAUGUCCUAACAGUGCUUGUAG [hsa-mir-4794]" reported=0.0771
sequence_text="UUUAUGCCUGUUAGCAUGAAAAAAGAGGCUGAGAA [hsa-mir-7515]" reported=-0.368
sequence_text="CCAUGCAACAUUUGG [hsa-mir-1302-4]" reported=-0.359
sequence_text=UCUGGAGUAAAAGACUGUGUUGUAUUACACAGUUACUUCACUUCAGA reported=-0.481
sequence_text="UUGGUGACAGCAGCAGUAGAGUUGCCAG [hsa-mir-6501]" reported=-0.35
sequence_text="GUGGCUAAUCAGCUGAUGGUGCCAC [hsa-mir-4715]" reported=-0.26
sequence_text="CCUGCCUCAGAACUACUGAACAGAGUCACUGGGUGUGGA [hsa-mir-1289-2]" reported=0.181
sequence_text="CCUGAUGAAUCUGAGGCCAGG [hsa-mir-577]" reported=-0.18

----------
System: TO-N3 (biotin conjugate)
Test: pull-down binding Z-score (relative to library population); higher = stronger binding
Settings: RNA library: Library-2
PROPERTY_LABEL: pull-down binding Z-score

sequence_text="GCAGGCCGUGAACUCGUCGAGCUGCGCGUGCGGCCGGUGCUCA [hsa-mir-1199]" test_target="TO-N3 (biotin conjugate)" reported=1.47
sequence_text="UUAACAUGUUGAGCAUUACUCAUGUUAG [hsa-mir-3684]" test_target="TO-N3 (biotin conjugate)" reported=-0.597
sequence_text="CUUUCCUUUUUGUCUGUACUGGGAAG [hsa-mir-373]" test_target="TO-N3 (biotin conjugate)" reported=-0.709
sequence_text=GGUUCACUAUAUGUUAAACCAGGUGGAACC test_target="TO-N3 (biotin conjugate)" reported=0.506
sequence_text="GGGCCUGGGUUUCUGAACAC [hsa-mir-196a-1]" test_target="TO-N3 (biotin conjugate)" reported=0.611
sequence_text=AACUGUGAUGUUGUAAUAGGAAUUGUCAACAACACAGUU test_target="TO-N3 (biotin conjugate)" reported=-0.618
sequence_text="AGAAAUCAAGCUAUUUGCUAAAAGUUCU [hsa-mir-6844]" test_target="TO-N3 (biotin conjugate)" reported=-0.316
sequence_text="UGCCACCCAGCCCUGCAGAGCCCCUGACUC [hsa-mir-6814]" test_target="TO-N3 (biotin conjugate)" reported=1.16
sequence_text="UUUGCCAUUAAAAGUAAUGGUAAA [hsa-mir-548x-2]" test_target="TO-N3 (biotin conjugate)" reported=-1.29
sequence_text="GAAGCUGUAAGGUGUUCAGAGGAGCUUU [hsa-mir-30e]" test_target="TO-N3 (biotin conjugate)" reported=0.977
sequence_text="AGGGCUGGGAUUACUAAAGCCCU [hsa-mir-1266]" test_target="TO-N3 (biotin conjugate)" reported=-0.158

----------
Measured pull-down binding Z-score, listed per entry for reference.
System: TO-3-N3 (biotin conjugate)
Test: pull-down binding Z-score (relative to library population); higher = stronger binding
Settings: RNA library: Library-2
PROPERTY_LABEL: pull-down binding Z-score

sequence_text=GGUUAUAAGAAACC reported=-0.083
sequence_text="AGGCAUGGGUGGCU [hsa-mir-8085]" reported=0.237
sequence_text="GGUCUGAGCCCAUGUGUGGACCUAGGUCUGCUGUUAAACUGACU [hsa-mir-6831]" reported=0.286
sequence_text="UAAGAGUAAUAGCUCUCUAGGUUAUUAUGAAUA [hsa-mir-5692c-1]" reported=-0.283
sequence_text="GGGUCCUAAGGUGUGUCCUC [hsa-mir-1976]" reported=-0.224
sequence_text="UGCUGUUGGAGACUCGAUUGUUGGUGACAGCGAAAGAACGAUAACAAA [hsa-mir-3655]" reported=-0.405
sequence_text="GCUUCCACUGAGAAGU [DMSMaPseq_invitro_SARS-CoV-2_Motif_384]" reported=-0.836
sequence_text="GGAGCCCGAGCAGCCGCGGUGAA [hsa-mir-7706]" reported=1.29
sequence_text=ACAUUAGAUAAUCAAGAUCUCAAUGGUAACUGGUAUGAUUUCGGUGAUUUCAUACAAACCACGCCAGGUAGUGGAGUUCCUGUUGUAGAUUCUUAUUAUUCAUUGU reported=-0.0358
sequence_text="GUGAGUUAGAAAAGCUCAAUUCAC [hsa-mir-4457]" reported=-0.654

Sourced from the supplement of paper PMC11865577
